Recorded values, source patent US20240391862A1.

Tested on: ABUTH
Assay: Post-emergence herbicidal effect, greenhouse pot test
Type: in vivo, Abutilon theophrasti
Settings: Abutilon theophrasti, 504 h, 320 g/ha, visual rating about 3 weeks after treatment, read-out: Post-emergence effect against ABUTH

{"Compound": "CCOC(=O)C(OC)Oc1nn(-c2cc(F)ccc2F)c(-c2cncc(F)c2)c1Br (centres unmarked) [Example I-33]", "Assay system": "ABUTH", "pest or weed control at 320 g/ha": "90%"}
{"Compound": "COC(=O)C(OC)Oc1nn(-c2ncccc2F)c(-c2cncc(F)c2)c1C1CC1 (centres unmarked) [Example I-73]", "Assay system": "ABUTH", "pest or weed control at 320 g/ha": "90%"}
{"Compound": "CCOC(=O)C(OCC)Oc1nn(-c2ccccc2F)c(-c2ccc(F)nc2)c1Br (single isomer, unassigned) [Example I-66]", "Assay system": "ABUTH", "pest or weed control at 320 g/ha": "90%"}
{"Compound": "COC(=O)C(OC)Oc1nn(-c2ccccc2F)c(-c2ccc(F)nc2)c1Br (racemic) [Example I-04]", "Assay system": "ABUTH", "pest or weed control at 320 g/ha": "80%"}
{"Compound": "CCOC(=O)C(OCC)Oc1nn(-c2ccccc2F)c(-c2ccc(F)nc2)c1Br (racemic) [Example I-01]", "Assay system": "ABUTH", "pest or weed control at 320 g/ha": "90%"}
{"Compound": "COC(=O)C(OC)Oc1nn(-c2ccccc2F)c(-c2ccc(F)nc2)c1C(F)(F)F (centres unmarked) [Example I-70]", "Assay system": "ABUTH", "pest or weed control at 320 g/ha": "90%"}
{"Compound": "COC(=O)C(OC)Oc1nn(-c2cccc(Cl)c2F)c(-c2cncc(F)c2)c1Cl (centres unmarked) [Example I-16]", "Assay system": "ABUTH", "pest or weed control at 320 g/ha": "90%"}
{"Compound": "COC(=O)C(OC)Oc1nn(-c2cnccn2)c(-c2ccc(F)nc2)c1Cl (centres unmarked) [Example I-35]", "Assay system": "ABUTH", "pest or weed control at 320 g/ha": "80%"}

* * *

Test system: VIOTR
Assay: Pre-emergence herbicidal effect, greenhouse pot test
Type: in vivo, Viola tricolor
Conditions: 320 g/ha, scored visually after about 3 weeks vs untreated controls
Endpoint name: Pre-emergence effect at 320 g/ha against VIOTR in %

{"Compound": "COC(=O)C(OC)Oc1nn(-c2ccccc2F)c(-c2ccc(F)nc2)c1I (stereo not drawn)", "Value": "90%"}
{"Compound": "COC(=O)CCOC(=O)C(OC)Oc1nn(-c2ncccc2F)c(-c2cncc(F)c2)c1C1CC1 (single isomer, unassigned)", "Value": "100%"}
{"Compound": "COC(Oc1nn(-c2cc(F)ccc2F)c(-c2cncc(F)c2)c1C1CC1)C(=O)O (stereo not drawn)", "Value": "100%"}
{"Compound": "COC(=O)C(OC)Oc1nn(-c2ccccc2F)c(-c2ccc(F)nc2)c1Br (racemic)", "Value": "100%"}
{"Compound": "COC(=O)C(OC)Oc1nn(-c2cc(F)ccc2F)c(-c2cncc(F)c2)c1C1CC1 (stereo not drawn)", "Value": "100%"}
{"Compound": "COC(=O)C(OC)Oc1nn(-c2ncccc2F)c(-c2ccc(F)nc2)c1Br (stereo not drawn)", "Value": "100%"}
